Test system: MDA-MB-231 breast
Assay: NCI tumour cell line growth inhibition, 48 h
assay readout: GI50

Solved cases (4 shown):
# input smiles, GI50
rows = [
    ("COc1ccc(-n2nc(C)c3c(Nc4ccc(NC(=O)Nc5ccc(Cl)c(C(F)(F)F)c5)cc4)ncnc32)cc1", "1470 nM"),
    ("COc1ccc(-c2cnoc2-c2cc(OC)c3c(c2)OCCO3)cc1", "50.9 nM"),
    ("[2H]c1nc(=Nc2cc(NC(=O)C=C)c(N(C)CCN(C)C)cc2OC)[nH]c(-c2cn(C([2H])([2H])[2H])c3ccccc23)c1[2H]", "1270 nM"),
    ("C/C1=C\\CC[C@@](C)(O)[C@@H]2C[C@H](CC/C(C)=C/CC1)C1(CC1)C(=O)O2", "13600 nM"),
]

Turning now to a further molecule:
**Query** Could you tell me which GI50 is on file for `COc1cccc(COc2cc(-n3cnc4ccccc43)sc2C(N)=O)c1` ?
**Result** 14800 nM
